# inhibition values compiled below
# test.system: SARS-CoV-2 Main Protease (SARS-CoV-2)
# experimental.setup: 50.0 µM
The figure you give is taken to be in %; do not add the unit.

Worked examples, 5 compounds total:
compound	quantity.unit	assay.result
Cc1ccnc2[nH]c(CC3CCN(C(=O)CCl)CC3)nc12	%	100
O=C(NCc1cccnn1)Nc1cccc(OCCN2CCOCC2)c1	%	0
Cc1ccncc1-c1nnc(-c2cccc(Cl)c2)o1	%	0.631
Cc1ccncc1NC(=O)Cc1cc(Cl)cc(NC2CCCC2O)c1 (stereo not given)	%	61.5
Cc1ccncc1NC(=O)c1ccc(NC(=O)Nc2cccnc2)cc1	%	0

Task: Which inhibition is reported with SARS-CoV-2 Main Protease (SARS-CoV-2) for this entry: C=CC(=O)N(c1ccc(C2(C)CC2)cc1)C(C(=O)NC(C)(C)C)c1cccnc1 (stereo not given) ?
Result: 10.1

Task: Entry to check: CN(C)c1ncccc1N(C)C(=O)C1CCOc2ccc(Cl)cc21 (stereo not given)
Result: 0

Task: Entry to check: O=S(=O)(Cc1ccccc1)Nc1cnccc1N1CCCC1
Result: 0

Task: Entry to check: CCN(C)CC1CCN(c2ccc(S(N)(=O)=O)cc2)CC1
Result: 0

Task: Entry to check: COC(=O)[C@H](CO)NC(=O)[C@H](Cc1ccccc1)NC(=O)OCc1ccccc1 (stereo in doubt)
Result: 0

---

# test.system: UniProt P0DTD1
# experimental.setup: 20.0 µM
readout.type: inhibition (%)
The figure you give is taken to be in %; do not add the unit.

compound	inhibition [%]
O=C(NCCN1CCN(C(=O)CCl)CC1)c1ccccc1	0.871
C=CC(=O)N(c1cc(C(C)(C)C)on1)C(C(=O)Nc1c(C)cccc1CC)c1cccnc1 (centres undefined)	1.49
C=CC(=O)N(c1ccc(C(C)(C)C)cc1)C(C(=O)NCCC(=O)OCC)c1cccnc1 (centres undefined)	12.3

Task: Sample C=CC(=O)N(c1ccc(C(C)(C)C)cc1)C(C(=O)NC1CCC1)c1cccnc1 (centres undefined) — what was its inhibition?
Result: 0

---

# test.system: SARS-CoV-2 Main Protease (SARS-CoV-2) (UniProt P0DTD1)
# experimental.setup: 20.0 µM
# inhibition values compiled below
The figure you give is taken to be in %; do not add the unit.

compound	test.system	quantity.unit	inhibition
COc1ccc2[nH]cc(CCNC(C)=O)c2c1	SARS-CoV-2 Main Protease (SARS-CoV-2) (UniProt P0DTD1)	%	1.37
O=C(Nc1cccnc1)Nc1ccc(Cl)s1	SARS-CoV-2 Main Protease (SARS-CoV-2) (UniProt P0DTD1)	%	8.85
Cc1ccc(-c2cc(C(F)(F)F)nn2-c2ccc(S(N)(=O)=O)cc2)cc1	SARS-CoV-2 Main Protease (SARS-CoV-2) (UniProt P0DTD1)	%	6.23
CC1(C)CC(C(=O)Nc2nncn2C2CC2)c2ccccc2O1 (stereo not given)	SARS-CoV-2 Main Protease (SARS-CoV-2) (UniProt P0DTD1)	%	-0.71

Note: attention shifts to another entry.
Task: Sample Nc1ncc(S(=O)(=O)NCc2cccc(Cl)c2)cn1 — what was its inhibition?
Result: 5.4

---

# test.system: SARS-CoV-2 Main Protease (SARS-CoV-2) (UniProt P0DTD1)
# experimental.setup: 50.0 µM
readout.type: inhibition (%)
The figure you give is taken to be in %; do not add the unit.

Worked examples, 10 molecules total:
molecule	inhibition [%]
CC(NC(=O)c1ccc2cn[nH]c2c1)C(=O)Nc1ccc(-n2cnc3ccccc32)cc1 (configuration not stated)	3.73
CC(C)C[C@H](NC(=O)OCc1ccccc1)C(=O)N[C@H](C(=O)NCC(=O)C=[N+]=[N-])C(C)C (stereo in doubt)	11.5
COc1ccc(-n2cc(CN3CCN(C(=O)CCl)CC3)nn2)cc1	24.9
CCC(NC(=O)C(C)n1cncn1)c1ccccc1OCC(=O)N1CCCC1 (configuration not stated)	0.701
Cc1ccc(S(=O)(=O)N2CCC(NC(=O)N(C)Cc3cc(C)on3)CC2)cc1	2.6
COc1ccccc1N1CCN(C(=O)c2cc(=O)[nH]c3ccccc23)CC1	62.8
Cc1ccc2nc(-c3ccc(N)cc3)sc2c1S(=O)(=O)O	21.2
O=C(Cc1cccnc1)Nc1cc(Cl)ccc1O	23.3
Cc1cccc(CC(=O)Nc2cccnc2C#N)c1	-5.94
Cc1cccc(NC(=O)Cn2c(=O)oc3ccccc32)c1	-5.83

Task: Sample COc1ccccc1OCCNC(=O)c1cc(=O)[nH]c2cccc(C)c12 — what was its inhibition?
Result: 96.4

Task: Entry to check: O=C(COc1ccccc1F)Nc1ncnc2[nH]cnc12
Result: -3.69

Task: Entry to check: Cc1cn2c(-c3cccnc3)c(-c3ccc(F)cc3)nc2s1
Result: 1.34

Task: Entry to check: Cc1ccncc1NC(=O)CCNc1ccc(S(N)(=O)=O)cc1
Result: -27.1

Task: Entry to check: Cc1cnn(-c2ccncc2NC(=O)Cn2cc(C)c3ccccc32)c1
Result: -0.417

Task: Entry to check: CN1C(=O)/C(=N\NC(=O)c2ccc3c(c2)OCO3)c2ccccc21
Result: -60.6

Task: Entry to check: CC(C)Cn1cc(NC(=O)NCCCN2CCCC2=O)c2ccccc2c1=O
Result: 3.77

---

# test.system: SARS-CoV-2 Main Protease (SARS-CoV-2) (UniProt P0DTD1)
# experimental.setup: 50.0 µM
readout.type: inhibition (%)
The figure you give is taken to be in %; do not add the unit.

compound	readout.type	assay.result
CC(=O)N[C@@H](Cc1ccc(O)cc1)C(=O)NC(CN1CCN(C(=O)CCl)CC1)c1ccccc1 (stereo in doubt)	inhibition	31.1
NS(=O)(=O)c1ccc(N2CCC(c3ccncc3)CC2)cc1	inhibition	1.84
Cc1ccncc1NC(=O)CCc1ccc(F)cc1	inhibition	6.51
Cc1oncc1C(=O)Nc1ccc(S(F)(F)(F)(F)F)cc1	inhibition	0
C=CC(=O)N1CCN(Cc2c[nH]c3ccc(C#N)cc23)CC1	inhibition	0
O=C(Nc1cncc2ccccc12)C1CCOc2ccc(Br)cc21 (centres undefined)	inhibition	90.6
O=C(COc1ccccc1)NCCc1ccccc1	inhibition	0
Cc1ccncc1NC(=O)CC1CCCNC1 (centres undefined)	inhibition	0

Task: Sample Sc1nc2ccccc2c2nc(CCc3ccccc3)nn12 — what was its inhibition?
Result: 0

Task: Entry to check: C=CC(=O)N1CCN(Cc2ccc(F)cc2)CC1
Result: 0

Task: Entry to check: COc1ccc(C2CC(c3ccccc3)=NN2C(=O)CCl)cc1OC (centres undefined)
Result: 100

Task: Entry to check: Cc1ccncc1-c1nc(-c2cccc(Cl)c2)no1
Result: 22.9

---

# inhibition values compiled below
# test.system: UniProt P0DTD1
# experimental.setup: 50.0 µM
The figure you give is taken to be in %; do not add the unit.

Worked examples, 10 compounds total:
compound	quantity.unit	inhibition
C=CC(=O)N(c1ccc(C2(C)CC2)cc1)C(C(=O)Nc1ccc(Cl)cc1)c1cccnc1 (configuration not stated)	%	-0.67
CC(NC(=O)CCl)c1cc(F)cc(Cl)c1 (configuration not stated)	%	100
CC(=O)N[C@@H](C)C(=O)Nc1cnccc1C (stereo in doubt)	%	-0.127
C=CC(=O)N(c1ccc(C(C)(C)C)cc1)C(C(=O)NC(C)(C)C)c1cncc(C(C)(F)F)c1 (configuration not stated)	%	0
C[N+]1=C2C=C(N/C=C/c3ccc(O)cc3)C(=O)c3[nH]cc(c32)CC1	%	8.91
CCCc1cc2c(cc1S(=O)(=O)N1CCN(c3ccccc3)CC1)OCO2	%	68.3
Cc1ccncc1Cn1ccccc1=O	%	6.5
CC1(C)Cc2cccc(OCCNC(=O)c3cc(=O)[nH]c4ccc(F)cc34)c2O1	%	42
Cc1cccc(CC2CCN(C(=O)CCl)CC2)c1	%	87.1
O=C(Nc1ccc([N+](=O)[O-])cc1Cl)c1cc(Cl)ccc1O	%	21

Task: Sample NS(=O)(=O)c1ccc(N2CCC(Nc3ccc(F)cc3)CC2)cc1 — what was its inhibition?
Result: 50.2

Task: Entry to check: CS(=O)(=O)Nc1cccc(C(=O)OCC(=O)Nc2cccc(N3CCCC3=O)c2)c1
Result: 0

---

# test.system: SARS-CoV-2 Main Protease (SARS-CoV-2) (UniProt P0DTD1)
# experimental.setup: 50.0 µM
readout.type: inhibition (%)
The figure you give is taken to be in %; do not add the unit.

Worked examples, 3 compounds total:
compound	inhibition [%]
O=C(c1cc(=O)[nH]c2ccccc12)N1CCN(c2ccccc2F)CC1	46.4
CCOc1ccccc1CN1C(=O)C(=O)c2cc(Br)ccc21	72.2
C=CC(=O)N(c1ccc(C2(C)CC2)cc1)C(C(=O)Nc1ccc(Br)cc1)c1cccnc1 (stereo not given)	67.8

Task: Sample Cc1ccc(O)cc1NC(=O)C(C)(C)c1cccc(F)c1 — what was its inhibition?
Result: -0.631

Task: Entry to check: O=C1C(=O)N(CCCOc2ccc(Cl)cc2)c2ccccc21
Result: 7.23
